Please respond with reported IC50 for every item in the list.
# test name: Cytotoxicity against human HCT116/VM46 cells assessed as reduction in cell viability after 72 hrs by phosphatase assay
# Assay type: cell-based
# test context: HCT-116/VM46, 72 h
Kindly answer with a numeric value in nM, unit omitted.

Can you share its IC50? I mean this compound: CC[C@]1(NC(=O)c2ccc(-c3ccccc3)cc2)C[C@H]2CN(CCc3c([nH]c4ccccc34)[C@@](C(=O)OC)(c3cc4c(cc3OC)N(C)[C@H]3[C@@](O)(C(=O)OC)[C@H](OC(C)=O)[C@]5(CC)C=CCN6CC[C@]43[C@@H]65)C2)C1
60

Fill in: IC50 of CC[C@]1(NC(=O)c2ccncc2)C[C@H]2CN(CCc3c([nH]c4ccccc34)[C@@](C(=O)OC)(c3cc4c(cc3OC)N(C)[C@H]3[C@@](O)(C(=O)OC)[C@H](OC(C)=O)[C@]5(CC)C=CCN6CC[C@]43[C@@H]65)C2)C1 is ___
55

====

# test name: Cytotoxicity against human HCT116/VM46 cells assessed as reduction in cell viability after 72 hrs by phosphatase assay
# Type: cell-based
# test context: HCT-116/VM46, 72 h
Would you mind telling me the reported IC50 of each entry?
Please respond with the number in nM and leave the unit unwritten.

Find the recorded IC50 belonging to CC[C@]1(NC(=O)c2ccc(OCc3ccccc3)cc2)C[C@H]2CN(CCc3c([nH]c4ccccc34)[C@@](C(=O)OC)(c3cc4c(cc3OC)N(C)[C@H]3[C@@](O)(C(=O)OC)[C@H](OC(C)=O)[C@]5(CC)C=CCN6CC[C@]43[C@@H]65)C2)C1 and report it.
55

# IC50 lookup, item CC[C@]1(NC(=O)C2CCOCC2)C[C@H]2CN(CCc3c([nH]c4ccccc34)[C@@](C(=O)OC)(c3cc4c(cc3OC)N(C)[C@H]3[C@@](O)(C(=O)OC)[C@H](OC(C)=O)[C@]5(CC)C=CCN6CC[C@]43[C@@H]65)C2)C1
3500

Name the recorded IC50 for CC[C@]1(NS(=O)(=O)c2cccc([N+](=O)[O-])c2)C[C@H]2CN(CCc3c([nH]c4ccccc34)[C@@](C(=O)OC)(c3cc4c(cc3OC)N(C)[C@H]3[C@@](O)(C(=O)OC)[C@H](OC(C)=O)[C@]5(CC)C=CCN6CC[C@]43[C@@H]65)C2)C1 .
430

Return reported IC50; argument: CC[C@]1(NC(=O)c2ccc(C(C)C)cc2)C[C@H]2CN(CCc3c([nH]c4ccccc34)[C@@](C(=O)OC)(c3cc4c(cc3OC)N(C)[C@H]3[C@@](O)(C(=O)OC)[C@H](OC(C)=O)[C@]5(CC)C=CCN6CC[C@]43[C@@H]65)C2)C1
13

Consider the compound shown here: CC[C@]1(NC(=O)C2CCc3ccccc3C2)C[C@H]2CN(CCc3c([nH]c4ccccc34)[C@@](C(=O)OC)(c3cc4c(cc3OC)N(C)[C@H]3[C@@](O)(C(=O)OC)[C@H](OC(C)=O)[C@]5(CC)C=CCN6CC[C@]43[C@@H]65)C2)C1 (stereo not given in full) What is its recorded IC50?
960

Would you kindly share the measured IC50 for CC[C@]1(NS(=O)(=O)c2ccccc2[N+](=O)[O-])C[C@H]2CN(CCc3c([nH]c4ccccc34)[C@@](C(=O)OC)(c3cc4c(cc3OC)N(C)[C@H]3[C@@](O)(C(=O)OC)[C@H](OC(C)=O)[C@]5(CC)C=CCN6CC[C@]43[C@@H]65)C2)C1 ?
440

Look at this compound and give its reported IC50. CC[C@]1(NC(=O)c2cccc(OC(F)(F)F)c2)C[C@H]2CN(CCc3c([nH]c4ccccc34)[C@@](C(=O)OC)(c3cc4c(cc3OC)N(C)[C@H]3[C@@](O)(C(=O)OC)[C@H](OC(C)=O)[C@]5(CC)C=CCN6CC[C@]43[C@@H]65)C2)C1
50

IC50 lookup needed for CC[C@]1(NC(=O)c2ccc3cc(N)ccc3c2)C[C@H]2CN(CCc3c([nH]c4ccccc34)[C@@](C(=O)OC)(c3cc4c(cc3OC)N(C)[C@H]3[C@@](O)(C(=O)OC)[C@H](OC(C)=O)[C@]5(CC)C=CCN6CC[C@]43[C@@H]65)C2)C1 , thanks.
7.4

Please report the recorded IC50 for CC[C@]1(NC(=O)c2cnco2)C[C@H]2CN(CCc3c([nH]c4ccccc34)[C@@](C(=O)OC)(c3cc4c(cc3OC)N(C)[C@H]3[C@@](O)(C(=O)OC)[C@H](OC(C)=O)[C@]5(CC)C=CCN6CC[C@]43[C@@H]65)C2)C1 .
65

What IC50 value was documented for this compound, CC[C@]1(NC(=O)c2cnccn2)C[C@H]2CN(CCc3c([nH]c4ccccc34)[C@@](C(=O)OC)(c3cc4c(cc3OC)N(C)[C@H]3[C@@](O)(C(=O)OC)[C@H](OC(C)=O)[C@]5(CC)C=CCN6CC[C@]43[C@@H]65)C2)C1 ?
550

Need IC50 of CCCCc1ccc(C(=O)N[C@@]2(CC)C[C@H]3CN(CCc4c([nH]c5ccccc45)[C@@](C(=O)OC)(c4cc5c(cc4OC)N(C)[C@H]4[C@@](O)(C(=O)OC)[C@H](OC(C)=O)[C@]6(CC)C=CCN7CC[C@]54[C@@H]76)C3)C2)cc1 , thanks.
70

Consider the compound shown here: CC[C@]1(NC(=O)c2ccccn2)C[C@H]2CN(CCc3c([nH]c4ccccc34)[C@@](C(=O)OC)(c3cc4c(cc3OC)N(C)[C@H]3[C@@](O)(C(=O)OC)[C@H](OC(C)=O)[C@]5(CC)C=CCN6CC[C@]43[C@@H]65)C2)C1 What is its recorded IC50?
460

Which value of IC50 has been reported for CC[C@]1(NC(=O)c2cccc3ccccc23)C[C@H]2CN(CCc3c([nH]c4ccccc34)[C@@](C(=O)OC)(c3cc4c(cc3OC)N(C)[C@H]3[C@@](O)(C(=O)OC)[C@H](OC(C)=O)[C@]5(CC)C=CCN6CC[C@]43[C@@H]65)C2)C1 in the records?
220

Requested field: IC50. Item: CC[C@]1(NS(=O)(=O)c2c(C)cc(C)cc2C)C[C@H]2CN(CCc3c([nH]c4ccccc34)[C@@](C(=O)OC)(c3cc4c(cc3OC)N(C)[C@H]3[C@@](O)(C(=O)OC)[C@H](OC(C)=O)[C@]5(CC)C=CCN6CC[C@]43[C@@H]65)C2)C1
710

Looking for the measured IC50 of CC[C@]1(NC(=O)c2cc(C)c(OCc3ccccc3)c(C)c2)C[C@H]2CN(CCc3c([nH]c4ccccc34)[C@@](C(=O)OC)(c3cc4c(cc3OC)N(C)[C@H]3[C@@](O)(C(=O)OC)[C@H](OC(C)=O)[C@]5(CC)C=CCN6CC[C@]43[C@@H]65)C2)C1 , can you help?
80

Origin of the recorded values: ChEMBL document CHEMBL4017512
